TARGET: human H-PGDS (Homo sapiens (Human), UniProt O60760)
Sequence (O60760 whole entry): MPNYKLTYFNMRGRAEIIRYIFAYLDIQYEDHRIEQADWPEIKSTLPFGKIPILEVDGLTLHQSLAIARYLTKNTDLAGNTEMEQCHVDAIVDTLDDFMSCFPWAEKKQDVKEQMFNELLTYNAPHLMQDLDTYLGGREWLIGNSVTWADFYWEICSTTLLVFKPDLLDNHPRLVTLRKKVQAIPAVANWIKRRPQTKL
ASSAY_METHOD_TEXT: Human H-PGDS binding inhibitory activity (AlphaLISA antagonistic assay)
CONDITION_CONTEXT: His-tagged human H-PGDS 0.3 nmol/L, biotinylated H-PGDS inhibitor 45 nmol/L
PROPERTY: IC50 (nM)
Field format: number, assumed nM, no unit text.

Any idea what IC50 came out for `Cc1nn(-c2ccc(C(=O)N[C@H]3CC[C@H](C(C)(C)O)CC3)cn2)c2ccccc12` on human H-PGDS (Homo sapiens (Human), UniProt O60760)? 12

Any idea what IC50 came out for `CC(C)(O)[C@H]1CC[C@H](NC(=O)c2cnc(-n3nc(C(F)(F)F)c4ccccc43)nc2)CC1` on human H-PGDS (Homo sapiens (Human), UniProt O60760)? 10

Any idea what IC50 came out for `Cc1nn(-c2ncc(C(=O)NC34CC(C(C)(C)O)(C3)C4)cn2)c2cc(F)ccc12` on human H-PGDS (Homo sapiens (Human), UniProt O60760)? 11

Any idea what IC50 came out for `CC(C)(O)[C@H]1CC[C@H](NC(=O)c2ccc(-n3nc(Cl)c4ccccc43)nc2)CC1` on human H-PGDS (Homo sapiens (Human), UniProt O60760)? 27

Any idea what IC50 came out for `Cc1nc([C@H]2CC[C@H](NC(=O)c3cnc(-n4nc(C)c5ccc(F)cc54)nc3)CC2)no1` on human H-PGDS (Homo sapiens (Human), UniProt O60760)? 14
